For each record, write down the corresponding IC50.
Target: Lck (h) (Homo sapiens)
Test: Lck Human STE Kinase Enzymatic Radiometric Assay
Type: biochemical
Details: radiometric, [gamma-33P]-ATP, Cdc2 peptide substrate; read-out: Lck IC50, nM Range*
Description: (b) Lck Human STE Kinase Enzymatic Radiometric Assay Lck (h) is incubated with 50 mM Tris pH 7.5, 0.1 mM EGTA, 0.1 mM Na3VO4, 250 uM KVEKIGEGTYGVVYK (Cdc2 peptide), 10 mM MgAcetate and [gamma-33P]-ATP (specific activity and concentration as required). The reaction is initiated by the addition of the Mg/ATP mix. After incubation for 40 minutes at room temperature, the reaction is stopped by the addition of phosphoric acid to a concentration of 0.5%. […]

>>> result("CC(C)[C@H]1CN(c2ccc(-c3cnc(N)c(-c4ccc5c(c4)CCNC5=O)n3)c(F)c2)CCN1C")
"21 to 200 nM"
>>> result("Nc1ncc(-c2ccc(N3CCN(CC(F)(F)F)CC3)cc2)nc1-c1ccc2c(c1)CCNC2=O")
"11 to 20 nM"
>>> result("CC(C)[C@H]1CN(c2ccc(-c3cnc(N)c(-c4ccc5c(c4)CCNC5=O)n3)cc2)CCO1")
"11 to 20 nM"

The following compounds each have a reported value; give each one's IC50.
1. C[C@@H]1COCCN1c1ccc(-c2cnc(N)c(-c3ccc4c(c3)CCNC4=O)n2)c(F)c1
2. CC(=O)N1CCN(c2ccc(-c3cnc(N)c(-c4ccc5c(c4)CCNC5=O)n3)cc2)CC1
3. CN1CCN(c2ccc(-c3cnc(N)c(-c4ccc5c(c4)CCCNC5=O)n3)cc2)CC1
4. CC(C)C1CCCN(c2ccc(-c3cnc(N)c(-c4ccc5c(c4)CCNC5=O)n3)cc2)C1 (stereo not drawn)
5. CC(C)[C@@H]1CN(c2ccc(-c3cnc(N)c(-c4cc5c(cc4F)C(=O)NCC5)n3)cc2)CCO1

Response:
21 to 200 nM
11 to 20 nM
6 to 10 nM
21 to 200 nM
6 to 10 nM

The following compounds each have a reported value; give each one's IC50.
1. Nc1ncc(-c2ccc(N3C[C@@H]4C[C@H]3CN4CC(F)(F)F)cc2)nc1-c1ccc2c(c1)CCNC2=O
2. CC(C)[C@H]1CN(c2ccc(-c3cnc(N)c(-c4cc5c(cc4F)C(=O)NCC5)n3)c(F)c2F)CCO1
3. CN1C[C@@H]2C[C@]2(c2ccc(-c3cnc(N)c(-c4cc5c(cc4F)C(=O)NCC5)n3)cc2)C1
4. C[C@@H]1CCCN1c1ccc(-c2cnc(N)c(-c3ccc4c(c3)CCNC4=O)n2)cc1
5. CN1CCN(c2ccc(-c3cnc(N)c(-c4cc(F)c5c(c4)CCNC5=O)n3)cc2)CC1

Response:
1. 11 to 20 nM
2. 21 to 200 nM
3. 11 to 20 nM
4. 11 to 20 nM
5. 6 to 10 nM

###

Target: Lck (h) (Homo sapiens, UniProt P06239)
Sequence (P06239 whole entry): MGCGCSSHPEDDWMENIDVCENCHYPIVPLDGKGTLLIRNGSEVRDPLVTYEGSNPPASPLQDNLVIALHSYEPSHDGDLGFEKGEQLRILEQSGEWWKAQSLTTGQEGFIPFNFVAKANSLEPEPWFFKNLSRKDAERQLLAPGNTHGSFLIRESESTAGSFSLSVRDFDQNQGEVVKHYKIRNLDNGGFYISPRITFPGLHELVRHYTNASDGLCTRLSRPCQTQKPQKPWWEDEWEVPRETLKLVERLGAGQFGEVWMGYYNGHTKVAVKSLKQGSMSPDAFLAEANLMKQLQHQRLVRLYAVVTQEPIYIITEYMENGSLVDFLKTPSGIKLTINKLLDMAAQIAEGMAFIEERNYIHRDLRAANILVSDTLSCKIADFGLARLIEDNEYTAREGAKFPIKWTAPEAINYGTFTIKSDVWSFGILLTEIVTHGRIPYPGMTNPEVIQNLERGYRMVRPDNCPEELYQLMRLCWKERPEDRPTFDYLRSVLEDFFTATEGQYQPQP
Experiment: Lck Human STE Kinase Enzymatic Radiometric Assay
Assay type: biochemical
Details: radiometric, [gamma-33P]-ATP, Cdc2 peptide substrate; read-out: Lck IC50, nM Range*
For each record, write down the corresponding IC50.

// known answers, use as guide
>>> result("Cc1nc2cc(-c3nc(-c4ccc(C5CCOCC5)c(CN(C)C)c4)cnc3N)ccc2c(=O)[nH]1")
"21 to 200 nM"
>>> result("CC(C)N1CCN(c2ccc(-c3cnc(N)c(-c4cc5c(cc4F)C(=O)NCC5)n3)cc2)CC1")
"11 to 20 nM"

The following compounds each have a reported value; give each one's IC50.
1. CC(C)N1CCN(c2ccc(-c3cnc(N)c(-c4ccc5c(c4)CCNC5=O)n3)cc2)CC1
2. CC(C)[C@@H]1CN(c2ccc(-c3cnc(N)c(-c4cc5c(cc4F)C(=O)NCC5)n3)c(F)c2F)CCO1
3. C[C@H]1COCCN1c1ccc(-c2cnc(N)c(-c3ccc4c(c3)CCNC4=O)n2)c(F)c1
4. CN1CCN(c2ccc(-c3cnc(N)c(-c4ccc5c(c4)CCNC5=O)n3)cc2)CC1
5. C[C@H]1CCCCN1c1ccc(-c2cnc(N)c(-c3ccc4c(c3)CCNC4=O)n2)c(F)c1
6. CC(C)[C@H]1CN(c2ccc(-c3cnc(N)c(-c4cc5c(cc4F)C(=O)NCC5)n3)c(F)c2)CCO1
7. Nc1ncc(-c2ccc(C3CCN(CC(F)(F)F)CC3)cc2)nc1-c1ccc2c(c1)CCNC2=O

Response:
6 to 10 nM
21 to 200 nM
11 to 20 nM
6 to 10 nM
21 to 200 nM
21 to 200 nM
11 to 20 nM

The following compounds each have a reported value; give each one's IC50.
1. C[C@@H]1COCCN1c1ccc(-c2cnc(N)c(-c3ccc4c(c3)CCNC4=O)n2)cc1
2. CN(C)C1CCN(c2ccc(-c3cnc(N)c(-c4ccc5c(c4)CCNC5=O)n3)c(F)c2)C1 (centres unmarked)

Response:
11 to 20 nM
11 to 20 nM

These entries and their values trace back to patent US20240317723A1.
